Data provenance: the RNAGym collection of RNA variant scans (doi:10.7554/elife.90254)

B1: LINE1-mini (parent)
chain: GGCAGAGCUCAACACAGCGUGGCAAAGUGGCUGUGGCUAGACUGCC

# Variants of: B1
# Protocol Summary: self-cleavage, relative activity (ratio to wild type); higher = more cleavage; in vitro, sequencing; the parent is a self-cleaving ribozyme
Measurement Type: self-cleavage
Answers are plain numbers.

Below are some variants; for each one, tell me its self-cleavage.
1. GGCAGAGCUCAACACAGCGUGUCAAAGUCGCUGUGGCUAGACUGCC [G22U G29C]
2. GGCAGAGCUCAACACAGCGUGGUAAAGUGGCUGUUGCUAGACUGCC [C23U G35U]

Resp:
1. 0.84
2. 0.16

Below are some variants; for each one, tell me its self-cleavage.
1. GGCAGAGCUCAACACAGCGUGGCAAAGUGUCUGUGGCUUGACUGCC [G30U A39U]
2. GGCCGAGCUCAACUCAGCGUGGCAAAGUGGCUGUGGCUAGACUGCC [A4C A14U]
3. GGCAGAGCUCAACUGAGCGUGGCAAAGUGGCUGUGGCUAGACUGCC [A14U C15G]

Resp:
0.87
0.22
0.04

Below are some variants; for each one, tell me its self-cleavage.
1. GGCAGAGCUCAACACAGCGUGGCAAAGUCACUGUGGCUAGACUGCC [G29C G30A]
2. GGCAGAGCUCAACACAGCGCGGCAAAGCGGCUGUGGCUAGACUGCC [U20C U28C]
3. GGCAGAGCUCAACACAGCGUGGCAAACUGGCUUUGGCUAGACUGCC [G27C G33U]
4. GGCAGAGCUCAACACAGAGUGACAAAGUGGCUGUGGCUAGACUGCC [C18A G22A]

Resp:
1.73
0.54
0.12
1.07

Below are some variants; for each one, tell me its self-cleavage.
1. AGCAGAGCUCAACACCGCGUGGCAAAGUGGCUGUGGCUAGACUGCC [G1A A16C]
2. GGCAGGGCUCCACACAGCGUGGCAAAGUGGCUGUGGCUAGACUGCC [A6G A11C]
3. GGCAGAGCUCAACACAGCGUGGCAAAGUGGCGGUGGCUAAACUGCC [U32G G40A]
4. GGCAGAACUCAACACAGCCUGGCAAAGUGGCUGUGGCUAGACUGCC [G7A G19C]
5. UGCAGAGCUCAACACAGCGUGGCAAAGUGGGUGUGGCUAGACUGCC [G1U C31G]
6. GACAGAGCUCAACACAGCGUGGCAAAGUGGCUGUGGCUAGACGGCC [G2A U43G]

Resp:
0.11
0.02
0.05
0.09
0.04
0.14

Below are some variants; for each one, tell me its self-cleavage.
1. GGCAGAGCUCAACACAGCGUGGCAAAGUGGCUGUGGAUAGACAGCC [C37A U43A]
2. GGCAGAGCUCAACACAGCGUGGCAAAGUGGCUAUGGCUAGUCUGCC [G33A A41U]

Resp:
0.13
0.11

Below are some variants; for each one, tell me its self-cleavage.
1. GGCAGAGCUCAACACCGCGUGGCAAAGUGGCUGUGGCUAGUCUGCC [A16C A41U]
2. GGCAGAGCUCAACACGGCGUGGCAAAGUGGCUGUGGCUAGACUGAC [A16G C45A]
3. GGCCAAGCUCAACACAGCGUGGCAAAGUGGCUGUGGCUAGACUGCC [A4C G5A]
4. GGCAGAGCUCAACACAGCGUGGCAAAGUGGCUGUGUCUAGACUACC [G36U G44A]
5. GGCAGAGCUCGACACAGCGUGGCAAAGUGGCAGUGGCUAGACUGCC [A11G U32A]
6. GGCAGAGCUCAACACGGCGGGGCAAAGUGGCUGUGGCUAGACUGCC [A16G U20G]
7. GGCAGAGGUCAACACAGCGUGGCAAAGUCGCUGUGGCUAGACUGCC [C8G G29C]
8. GGCAGAGCUCAACACAGCGUGGCAAACUGGCAGUGGCUAGACUGCC [G27C U32A]

Resp:
0.05
0.14
0.12
0.06
0.02
0.16
0.04
0.09

Below are some variants; for each one, tell me its self-cleavage.
1. GGCAGAGCUCAACACAGAGUGGGAAAGUGGCUGUGGCUAGACUGCC [C18A C23G]
2. GGCAGAGCUCAACAAUGCGUGGCAAAGUGGCUGUGGCUAGACUGCC [C15A A16U]
3. GGCAGAGCUCAACACAGCGUGGCAUCGUGGCUGUGGCUAGACUGCC [A25U A26C]
4. GGCAGAGCUCAACGCAGCGGGGCAAAGUGGCUGUGGCUAGACUGCC [A14G U20G]
5. GGCAGAGCUCAACACUGCGUGGCAAAGUGGCUGUGGCUAGACUUCC [A16U G44U]

Resp:
1. 0.76
2. 0.06
3. 1.79
4. 0.15
5. 0.03
